# study-target: Dynamin-2 (Homo sapiens, UniProt P50570)
# Sequence (P50570 whole entry): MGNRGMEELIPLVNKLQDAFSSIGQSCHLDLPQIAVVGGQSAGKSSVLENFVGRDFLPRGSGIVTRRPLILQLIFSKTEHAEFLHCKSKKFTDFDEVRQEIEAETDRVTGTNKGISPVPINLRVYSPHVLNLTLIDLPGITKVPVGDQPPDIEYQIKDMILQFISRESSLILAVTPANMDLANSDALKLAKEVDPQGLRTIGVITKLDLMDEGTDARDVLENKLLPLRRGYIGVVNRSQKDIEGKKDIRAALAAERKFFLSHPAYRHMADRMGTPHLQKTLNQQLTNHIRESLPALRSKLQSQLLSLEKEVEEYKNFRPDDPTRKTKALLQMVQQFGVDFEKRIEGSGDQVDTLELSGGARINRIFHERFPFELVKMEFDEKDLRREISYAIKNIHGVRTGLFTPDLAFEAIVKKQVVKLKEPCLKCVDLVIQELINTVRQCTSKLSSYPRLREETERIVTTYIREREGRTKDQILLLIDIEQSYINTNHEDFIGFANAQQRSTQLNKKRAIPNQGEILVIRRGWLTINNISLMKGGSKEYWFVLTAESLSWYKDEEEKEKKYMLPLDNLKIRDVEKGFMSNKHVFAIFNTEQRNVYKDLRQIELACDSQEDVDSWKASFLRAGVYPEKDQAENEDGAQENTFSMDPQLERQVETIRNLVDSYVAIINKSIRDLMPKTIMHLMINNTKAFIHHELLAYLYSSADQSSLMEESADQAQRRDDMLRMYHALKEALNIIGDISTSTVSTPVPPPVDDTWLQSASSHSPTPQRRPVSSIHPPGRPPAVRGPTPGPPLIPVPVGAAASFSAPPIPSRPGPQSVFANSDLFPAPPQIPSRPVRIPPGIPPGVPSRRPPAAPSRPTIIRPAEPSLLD
# assay-procedure: Inhibition of recombinant dynamin 2 expressed in Sf9 cells after 30 mins by malachite green method
quantity-kind: pIC50
Note on pIC50: it is the negative log10 of concentration, concentration in mol/L.

Documented pIC50 of "O=C(Nc1cc(Cl)ccc1C(=O)O)c1ccc2c(c1)C(=O)N(c1ccc(O)cc1)C2=O" : 3.94
